Source of measurements: paper PMC10397247

# interaction score per record follows
# TESTED_SYSTEM: T1, 4H697-AA
# T1 chain: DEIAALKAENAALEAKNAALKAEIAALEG
# ASSAY_METHOD_TEXT: two-hybrid library CCmax;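 note: natural log of median RNA to DNA barcode read ratio; higher means stronger binding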
# TEST_CONTEXT: mean of both orientations
MEASURE_NAME: interaction score

# BINDER, MEASURE_NAME, OBSERVED
rows = [
    ("DKNAALKAEIAALEAKIAALKAKNAALEG [4H3631-AA]", "interaction score", -1.8),
    ("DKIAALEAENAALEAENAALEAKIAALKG [4H2198-AA]", "interaction score", 1),
    ("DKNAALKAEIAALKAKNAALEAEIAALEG [4H3697-AA]", "interaction score", -1.53),
    ("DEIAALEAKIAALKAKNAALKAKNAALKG [4H384-AA]", "interaction score", -1.86),
    ("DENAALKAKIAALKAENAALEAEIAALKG [4H1874-AA]", "interaction score", 1.47),
    ("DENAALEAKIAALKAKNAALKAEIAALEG [4H1401-AA]", "interaction score", -1.39),
    ("DKNAALEAEIAALKAENAALKAEIAALKG [4H3162-AA]", "interaction score", -1.39),
]
